- protocolSummary: Cytotoxicity against HFF cells
- Assay type: cell-based
- conditionNotes: human
observable: CC50 (µM)

In [3]: df
Out[3]:
                                   compound  observable  valueunits  censoringqualifier  measuredresult
0  Cc1ccc(C(=O)NC2CCCc3c2[nH]c2ccc(Br)cc32)cc1 (racemic)        CC50          µM                   =              87
1  CC(=O)NC1CCCc2c1[nH]c1ccc(Br)cc21 (stereo unspecified)        CC50          µM                   >              50
2  O=C(N[C@H]1CCCc2c1[nH]c1ccc(Cl)cc21)c1ccccc1F        CC50          µM                   =              36
3  COc1ccccc1C(=O)NC1CCCc2c1[nH]c1ccc(Br)cc21 (racemic)        CC50          µM                   =             100
4  O=C(NC1CCCc2c1[nH]c1ccc(Br)cc21)C1CCCCC1 (stereo unspecified)        CC50          µM                   =              50
5  O=C(N[C@H]1CCCc2c1[nH]c1ccc(Cl)cc21)c1ccccn1        CC50          µM                   =              61

----------
Reported values of CC50 for individual entries
- protocolSummary: Cytotoxicity against HFF cells
- Type: cell-based
- conditionNotes: human
observable: CC50

In [3]: df
Out[3]:
                                   compound  observable  measuredresult
0  Cc1ccc(S(=O)(=O)NC2CCCc3c2[nH]c2ccc(Br)cc32)cc1 (centres undefined)        CC50         > 20 µM
1  O=C(CCc1ccccc1)NC1CCCc2c1[nH]c1ccc(Br)cc21 (centres undefined)        CC50         > 50 µM
2  O=C(Cc1ccccc1)NC1CCCc2c1[nH]c1ccc(Br)cc21 (centres undefined)        CC50         > 50 µM
3  CS(=O)(=O)NC1CCCc2c1[nH]c1ccc(Br)cc21 (centres undefined)        CC50         > 50 µM
